Form field: koff (one value per entry).
target: T1, hK1 (human tissue kallikrein 1), recombinant (human, UniProt P06870 25-262); assay: SPR
T1 construct: Expressed in P. pastoris from KLK1 cDNA and purified; enzymatically active; also called KLK1; Recombinant (Pichia) Kallikrein
Show the value, then the unit it is measured in.

[
  {
    "Binder": "M0139-A04 (Fab, V domains shown) VH: EVQLLESGGGLVQPGGSLRLSCAASGFTFSHYPMTWVRQAPGKGLEWVSSIRPSGGNTGYADSVKGRFTISRDNSKNTLYLQMNSLRAEDTAVYYCARLTGYSSGWFWAYGMDVWGQGTTVTVSS VL: DIQMTQSPGTLSLSPGDRATLSCRASQSVSSSYLAWYQQKAGQAPRLLIYGAASRATGIPDRFSGSGSGTDFTLTISRLEREDFAVYYCQQYGSSPLITFGQGTRLEIKR",
    "Endpoint Result": "0.00503 s⁻¹"
  },
  {
    "Binder": "M0134-D07 (Fab, V domains shown) VH: EVQLLESGGGLVQPGGSLRLSCAASGFTFSRYFMIWVRQAPGKGLEWVSSIVPSGGPTRYADSVKGRFTISRDNSKNTLYLQMNSLRAEDTAVYYCARRGPVYYYDSSGSHSAFDIWGQGTMVTVSS VL: DIQMTQSPSSLSASVGDRVTITCRASQGIRNDLGWYQQKPGKAPKLLIYAASSLQSGVPSRFSGSGSGTDFTLTISSLQPEDFATYYCLQDYNYPRTFGQGTKVEIKR",
    "Endpoint Result": "0.000138 s⁻¹"
  },
  {
    "Binder": "M0105-B06 (Fab, V domains shown) VH: EVQLLESGGGLVQPGGSLRLSCAASGFTFSHYAMGWVRQAPGKGLEWVSRIWPSGGHTQYADSVKGRFTISRDNSKNTLYLQMNSLRAEDTAMYYCATGYSSTWGAFDIWGQGTMVTVSS VL: DIQMTQSPSSLSASVGDRVTLTCRASQSIANYLNWYQQKPGKAPKLLVYAASRLHSGVPSRFSGRGSGTDFTLTITSLEPDDLATYYCQQSHASPLTFGGGTKVEIKR",
    "Endpoint Result": "0.0036 s⁻¹"
  },
  {
    "Binder": "M0138-C04 (Fab, V domains shown) VH: EVQLLESGGGLVQPGGSLRLSCAASGFTFSHYHMQWVRQAPGKGLEWVSGIRSSGGVTGYSDSVKGRFTISRDNSKNTLYLQMNSLRAEDTAVYYCAREVTMVRGVYYYYYGMDVWGQGTTVTVSS VL: AQYELTQPASVSGSPGQSITISCTGTSSDVGAYNYVSWYQHHPGKAPKLLIYDVSNRPSGISSRFSGSKSGNTASLTISGLQAEDEADYYCSSYTSSYTWVFGGGTKLTVLS",
    "Endpoint Result": "0.000728 s⁻¹"
  }
]

Here is another binder to look at.
koff recorded for this binder, M0099-A09 (Fab, V domains shown) VH: EVQLLESGGGLVQPGGSLRLSCAASGFTFSRYAMFWVRQAPGKGLEWVSSISPSGGKTRYADSVKGRFTISRDNSKNTLYLQMNSLRAEDTAVYYCARGGGTALDYWGQGTLVTVSS VL: DIQMTQSPGTLSLSPGERATLSCRASQSVYSSYLAWYQQKPGQAPRLLIYAASNRAIGIPDRFSGSGSGTDFTLTISSMQPEDFATYYCQQSYSTPRFGQGTKLEIKR , is 0.00285 s⁻¹
